All values here come from ChEMBL document CHEMBL1142319.

- System: HL-60
- testName: Cell cycle arrest in human HL60 cells assessed as accumulation at G0/G1 phase at 2 uM
- Format: functional
List of Activity values.
Numeric answer only, unit % assumed.

// worked examples, Activity included
Cc1cn2c(/C=N/NC(=N)N)c(-c3cc(Cl)sc3Cl)nc2s1 35.3
Cc1nn2c(/C=N/NC(=N)N)c(-c3ccc(Cl)c([N+](=O)[O-])c3)nc2s1 29.9
COc1cc([N+](=O)[O-])c(OC)cc1-c1nc2sc(Cl)cn2c1/C=N\NC1=NCCN1 33.1
Cc1cn2c(/C=N/NC(=N)NN)c(-c3ccc(Cl)c([N+](=O)[O-])c3)nc2s1 35

Now consider the entry below.
Which Activity value belongs to Cc1cn2c(/C=N/NC3=NCCN3)c(-c3ccc(Cl)c([N+](=O)[O-])c3)nc2s1 ?
31.3
